test: Cmax in Sprague-Dawley rat at 50 mg/kg, ip measured after 0.083 to 24 hrs by LC-MS/MS analysis; format: ADME, organism-based; design: dose 50 mg/kg, route intraperitoneal; settings: in vivo
metric name: Cmax (ng/mL)
Report the figure in ng/mL without appending any unit label.

Consider the molecule shown here: Cc1ccc(-n2nc3c(=O)n(CCCC(=O)NCCCCCCCCNc4cccc5c4C(=O)N(C4CCC(=O)NC4=O)C5=O)nc(C)c3c2C)cc1 (stereo unspecified) What is its recorded Cmax?
564

---

experiment: Tmax in Sprague-Dawley rat at 50 mg/kg, ip measured after 0.083 to 24 hrs by LC-MS/MS analysis; assay type: ADME, organism-based; details: in vivo
metric name: Tmax

Consider the compound Cc1ccc(-n2nc3c(=O)n(CCCC(=O)NCCCCCCCCNc4cccc5c4C(=O)N(C4CCC(=O)NC4=O)C5=O)nc(C)c3c2C)cc1 (stereo unspecified) and give its measured Tmax.
1.67 h

Where these numbers come from: ChEMBL document CHEMBL4616722
